Biological target: T1, N(A2B2)A-avi-His (biotinylated at the avi tag)
T1 construct: also called biotinylated N(A2B2)A-avi-His
T1 chain: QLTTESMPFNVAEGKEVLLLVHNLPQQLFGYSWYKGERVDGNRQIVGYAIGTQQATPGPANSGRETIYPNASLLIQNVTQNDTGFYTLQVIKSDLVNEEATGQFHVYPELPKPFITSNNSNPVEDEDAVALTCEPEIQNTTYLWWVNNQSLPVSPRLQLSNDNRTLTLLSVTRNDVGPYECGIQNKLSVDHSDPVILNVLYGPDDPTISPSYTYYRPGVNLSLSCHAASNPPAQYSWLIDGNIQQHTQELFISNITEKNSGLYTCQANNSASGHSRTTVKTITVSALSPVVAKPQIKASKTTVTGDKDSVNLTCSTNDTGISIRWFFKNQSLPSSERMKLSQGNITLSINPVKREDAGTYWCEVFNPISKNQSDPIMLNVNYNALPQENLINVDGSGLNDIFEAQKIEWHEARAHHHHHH
Experiment: SPR, ProteOn, antigen on NLC chip, purified Fab as analyte
metric: Kd (nM)
Response body: numeric value in nM, unit text excluded.

Query: Quickly give me recorded Kd for A5H1EL1D Fab (phage display format, parental clone) (Fab, V domains shown, Fab from E. coli (bacterial supernatant or IMAC-purified), Flag tag) VH: EVQLLESGGGLVQPGGSLRLSCAASGFTFTDYYMNWVRQAPGKGLEWLGFIGNKANAYTTEYSASVKGRFTISRDKSKNTLYLQMNSLRAEDTATYYCTRDRGLRFYFDYWGQGTTVTVSS VL: EIVLTQSPATLSLSPGERATLSCRASSSVTYIHWYQQKPGQAPRSWIYATSNLASGIPARFSGSGSGTDFTLTISSLEPEDFAVYYCQHWSSKPPTFGQGTKLEIK
Reply: 2.3

Query: Quickly give me recorded Kd for P001.177 Fab (Fab, V domains shown, Fab from E. coli) VH: EVQLLESGGGLVQPGGSLRLSCAASGFYFTDYYMNWVRQAPGKGLEWLGFISNKANAYTTEYSASVKGRFTISRDKSKNTLYLQMNSLRAEDTATYYCTRDRGLRFYFDYWGQGTTVTVSS VL: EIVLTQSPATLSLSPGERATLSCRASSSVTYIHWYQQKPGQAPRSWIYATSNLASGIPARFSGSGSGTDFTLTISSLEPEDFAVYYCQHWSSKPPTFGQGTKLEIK
Reply: 0.29

Query: Quickly give me recorded Kd for P005.103 Fab (Fab, V domains shown, Fab from E. coli) VH: EVQLLESGGGLVQPGGSLRLSCAASGFTFTDYYMNWVRQAPGKGLEWLGFIGNKANAYTTEYSASVKGRFTISRDKSKNTLYLQMNSLRAEDTATYYCTRDRGIRFYFDYWGQGTTVTVSS VL: EIVLTQSPATLSLSPGERATLSCRASSSVTYIHWYQQKPGQAPRSWIYATSNLASGIPARFSGSGSGTDFTLTISSLEPEDFAVYYCQHWSSISPTFGQGTKLEIK
Reply: 0.5
